# SYSTEM_TESTED: recombinant rabbit GSK-3β protein (Oryctolagus cuniculus)
# Construct: purchased New England Biolabs
# Sequence (G1T8E2 1-432): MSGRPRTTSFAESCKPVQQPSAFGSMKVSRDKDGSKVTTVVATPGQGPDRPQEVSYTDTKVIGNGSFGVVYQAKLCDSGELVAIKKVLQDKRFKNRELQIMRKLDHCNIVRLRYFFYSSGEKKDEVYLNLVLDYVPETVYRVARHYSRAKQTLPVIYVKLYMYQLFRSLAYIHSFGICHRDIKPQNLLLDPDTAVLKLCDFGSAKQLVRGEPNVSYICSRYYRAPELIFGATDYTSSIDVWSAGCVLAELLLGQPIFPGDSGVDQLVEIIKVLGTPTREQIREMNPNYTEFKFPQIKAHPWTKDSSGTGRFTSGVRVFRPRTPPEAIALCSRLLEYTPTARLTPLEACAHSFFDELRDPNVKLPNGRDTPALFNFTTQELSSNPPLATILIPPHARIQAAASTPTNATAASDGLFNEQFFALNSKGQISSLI
# PROTOCOL: Glycogen Synthase Kinase-3 Assay
# Type: biochemical
# MEASUREMENT_PARAMETERS: PPI-2 substrate, 33P-ATP, 90 minutes at 30° C.
RESULT_TYPE: IC50 (µM)

Past entries and their recorded results:
STRUCTURE_NOTATION | IC50 / µM
O=C1NC(=O)C(c2nn(CCCCO)c3ccccc23)=C1c1cn(-c2cccnc2)c2ccccc12 | 0.04
CCn1cc(C2=C(c3nn(CCCN(C)C)c4ccccc34)C(=O)NC2=O)c2cc(Cl)ccc21 | 0.01
O=CCCn1nc(C2=C(c3cn(-c4cccnc4)c4ccccc34)C(=O)NC2=O)c2ccccc21 | 0.115

(a) CCn1cc(C2=C(c3nn(CCCN(C)C)c4ccccc34)C(=O)NC2=O)c2cccc(Cl)c21
(b) O=C1NC(=O)C(c2cn(-c3cccnc3)c3ccccc23)=C1c1[nH]nc2ccccc12
Consider a and b . Which of these has its IC50 at a higher number? Provide the label of your selected option as the answer.
b
